Recorded values, source a melting point compilation (Tetko et al.; mined from patent text by program, amines drawn as free bases though some values may be those of a salt).

In this section, each of the molecules is paired with its reported melting point.

See these solved cases before continuing.
• CCCN(CC1CC1)c1nc(C)nc2c1c(C)c(C)n2-c1c(C)cc(C)c2nsnc12 = 136 °C
• O=C1CCC(c2ccc(-c3ccc(Cl)cc3)o2)O1 (stereo not given) = 100 to 101 °C
• COc1cc(N)c(Br)cc1C(=O)NC1CCN(CC2CCN(C(N)=O)CC2)CC1 = 228 to 230 °C
• Cc1ccc2[nH]c3c(c2c1)C(C(=O)O)CCC3 (stereo not given) = 194 to 197 °C

Note: attention shifts to another entry.
In: Would you mind telling me what melting point value was observed for O=C(O)COc1cccc(C(O)C(c2ccccc2)C2SCCCS2)c1 (stereo not given) ?
Out: 99 to 101 °C

====

We begin with a simple list: items and their reported melting point.

- COc1ccc(C(=O)Oc2cccc3cc4cccc(OC(=O)c5ccc(OC)cc5)c4c(OC(=O)c4ccc(OC)cc4)c23)cc1: 260 °C
- CCCCCCCCCCCCP(=O)(O)CCCNC(=O)OCc1ccccc1: 115 to 116 °C
- CS(=O)(=O)c1ccc(-c2cnn(-c3ccc(F)cc3)c(=O)c2-c2ccc(Cl)cc2)cc1: 195 to 197 °C
- CCCCCCCCCCCC(=O)NCCCSc1ccncc1: 71 to 72 °C
- COc1ccc2c(c1)COc1c-2cc(-c2cccs2)c2cc(OC)ccc12: 110 to 112 °C
- O=CN1CCC(C(c2ccccc2)c2ccccc2)CC1: 172 to 174 °C

In: Consider the compound `Cc1cc(NC(=O)Nc2ccc(N(CCCl)CCCl)cc2)c2ccccc2n1` and give its measured melting point.
Out: 128 to 129 °C

In: Also `COC(=O)c1cc(CN=[N+]=[N-])cc([N+](=O)[O-])c1` , if possible.
Out: 44 to 46 °C

In: Can you check `CCCc1ccnc2c(=O)[nH]c(-c3cc(S(=O)(=O)N4CCN(C)CC4)ccc3OCC)nc12` next?
Out: 211 to 212 °C

In: Now consider `CN(C(=O)Cl)c1ccc2c(c1)OCO2` and answer again.
Out: 71 to 73 °C

In: Then CC1Cc2c(O)cc(C(=O)O)cc2O1 (stereo not given) ?
Out: 181 to 184 °C

====

Property: melting point; scope: individual compounds

In: Endpoint output: melting point of `CCCCNC(=O)Nc1cccc(-c2ccnc3c(C(=O)c4cccs4)cnn23)c1` . Value?
Out: 158 to 160 °C

In: Also need CCC1c2cc(OC)c(OC)cc2C(C=Cc2ccc(N)cc2)=NNC1C (stereo unspecified) , thanks.
Out: 155 to 158 °C

In: Also `O=C(O)c1c(Cl)nc(-c2ccccc2)c2ccccc12` ?
Out: 208 °C

====

Listing of entries alongside the reported melting point.

The cases that follow already have their melting point on record.
* Cc1ccc(NC(N)=S)c(O)c1 | 175 to 177 °C
* COc1ccc2c(c1)C(=O)N(CCCNCCCN1C(=O)c3cc(OC)ccc3C(C)(C)C1=O)C(=O)C2(C)C | 151 to 152 °C
* O=C(O)CCC(Cl)(Cl)Cl | 54.8 °C
* CCCn1c(=O)[nH]c(=O)c2[nH]c(/C=C/c3cc(OC)c(OC)c(OC)c3)nc21 | 286 to 291 °C
* CCCCCCCCCCC[C@@H](O)CC(=O)OC | 42 to 43 °C
* COC(=O)c1c(C)c(O)cc(OC)c1Cl | 92 °C
* O=C(O)CCCc1cc2nc(Cl)ccc2n1S(=O)(=O)c1ccc2c(c1)OCO2 | 160 °C
* Oc1cc(O)nc(C(F)(F)F)n1 | 255 to 256 °C
* OC(COc1ccn(-c2ccc(Cl)c(Cl)c2)n1)CN1CCOCC1 (stereo unspecified) | 158 to 161 °C
* Cc1c(C(F)(F)F)n[nH]c1-c1ccc(Cl)cc1 | 139 °C

Now let's try a different one.
In: Fill in: melting point of `Oc1ccc(Nc2ncc3ncc(-c4ccc(O)cc4)cc3n2)cc1` is ___
Out: > 268 °C
